tested on: Bacteroides fragilis; experiment: MIC against gut bacterium Bacteroides fragilis; format: cell-based; conditions: Bacteroides fragilis, Bacteroides fragilis strain HM-709; Table 7; read-out: MIC
Quantity name: MIC (µg/mL)

molecule=O=C(Nc1ncco1)c1cc(-c2ccc(Cl)c(Cl)c2)ccn1 quantity_name=MIC sign== quantitative_result=4
molecule=O=C(Nc1ncco1)c1ccnc(-c2ccc(Cl)c(Cl)c2)c1 quantity_name=MIC sign== quantitative_result=1
molecule=O=C(O)c1ccc2oc(NC(=O)c3cc(Oc4cccc(OC(F)(F)F)c4)ccn3)nc2c1 quantity_name=MIC sign== quantitative_result=4
molecule="Cc1ncc([N+](=O)[O-])n1CCO [MTZ, metronidazole, reference compound]" quantity_name=MIC sign== quantitative_result=1
molecule=O=C(Nc1ncco1)c1cc(Oc2cccc(OC(F)(F)F)c2)ccn1 quantity_name=MIC sign== quantitative_result=8
molecule="CCc1c(Cl)c(O)c(Cl)c(O)c1C(=O)O[C@H]1[C@H](O)[C@H](OC)[C@H](OC/C2=C\\C=C\\C[C@H](O)/C(C)=C/[C@H](CC)[C@@H](O[C@@H]3OC(C)(C)[C@@H](OC(=O)C(C)C)[C@H](O)[C@@H]3O)/C(C)=C/C(C)=C/C[C@@H]([C@@H](C)O)OC2=O)O[C@@H]1C [FDX, fidaxomicin, reference compound]" quantity_name=MIC sign=> quantitative_result=32

----------
experiment: Pharmacokinetics study in mice (plasma and feces levels); format: in vivo; details: female, CD-1, mouse, single oral gavage, dose 20 mg · kg^−1, feces collected after 8 h, read-out: Drug concentration in fecal samples (mg kg^−1 feces)
Quantity name: concentration at 8 h (ng/g)

smiles_code=O=C(Nc1ncco1)c1cc(Oc2cccc(OC(F)(F)F)c2)ccn1 quantitative_result=49000
smiles_code=O=C(Nc1ncco1)c1ccnc(-c2ccc(Cl)c(Cl)c2)c1 quantitative_result=2800
smiles_code=O=C([O-])c1ccc2oc(NC(=O)c3cc(Oc4ccc(F)c(F)c4)ccn3)nc2c1.[Na+] quantitative_result=3700
smiles_code=O=C(Nc1ncco1)c1cc(Oc2cccc(F)c2)ccn1 quantitative_result=2400

----------
system: C. difficile; assay: MIC by broth microdilution against C. difficile strains; format: cell-based, Clostridioides difficile; conditions: Clostridioides difficile, C. difficile 26675 (MR, metronidazole-resistant); Table 7; read-out: MIC
Entries annotated with measured MIC
Quantity name: MIC

molecule="Cc1ncc([N+](=O)[O-])n1CCO [MTZ, metronidazole, reference compound]" result="4 µg/mL"
molecule="CCc1c(Cl)c(O)c(Cl)c(O)c1C(=O)O[C@H]1[C@H](O)[C@H](OC)[C@H](OC/C2=C\\C=C\\C[C@H](O)/C(C)=C/[C@H](CC)[C@@H](O[C@@H]3OC(C)(C)[C@@H](OC(=O)C(C)C)[C@H](O)[C@@H]3O)/C(C)=C/C(C)=C/C[C@@H]([C@@H](C)O)OC2=O)O[C@@H]1C [FDX, fidaxomicin, reference compound]" result="4 µg/mL"
molecule="O=C(O)c1ccc2oc(NC(=O)c3cc(Oc4cccc(OC(F)(F)F)c4)ccn3)nc2c1 [Compound 1]" result="0.25 µg/mL"
molecule="CN[C@H](CC(C)C)C(=O)N[C@H]1C(=O)N[C@@H](CC(N)=O)C(=O)N[C@H]2C(=O)N[C@H]3C(=O)N[C@H](C(=O)N[C@H](C(=O)O)c4cc(O)cc(O)c4-c4cc3ccc4O)[C@H](O)c3ccc(c(Cl)c3)Oc3cc2cc(c3O[C@@H]2O[C@H](CO)[C@@H](O)[C@H](O)[C@H]2O[C@H]2C[C@](C)(N)[C@H](O)[C@H](C)O2)Oc2ccc(cc2Cl)[C@H]1O [VAN, vancomycin, reference compound]" result="1 µg/mL"
molecule="O=C(Nc1ncco1)c1cc(Oc2cccc(OC(F)(F)F)c2)ccn1 [Compound 108]" result="1 µg/mL"
molecule="O=C(Nc1ncco1)c1cc(-c2ccc(Cl)c(Cl)c2)ccn1 [Compound 87]" result="0.5 µg/mL"
molecule="O=C(Nc1ncco1)c1ccnc(-c2ccc(Cl)c(Cl)c2)c1 [Compound 4]" result="0.25 µg/mL"

----------
tested on: MRSA (NRS70, NRS119); assay: MIC against MRSA strains; assay type: cell-based, Staphylococcus aureus; details: Staphylococcus aureus, MRSA NRS70; Table 1; read-out: MIC
Quantity name: MIC (mg/L)

compound="O=C(O)c1ccc2oc(NC(=O)c3cc(Oc4cccc(OC(F)(F)F)c4)ccn3)nc2c1 [Compound 1]" sign== quantitative_result=16
compound="CCc1c(Cl)c(O)c(Cl)c(O)c1C(=O)O[C@H]1[C@H](O)[C@H](OC)[C@H](OC/C2=C\\C=C\\C[C@H](O)/C(C)=C/[C@H](CC)[C@@H](O[C@@H]3OC(C)(C)[C@@H](OC(=O)C(C)C)[C@H](O)[C@@H]3O)/C(C)=C/C(C)=C/C[C@@H]([C@@H](C)O)OC2=O)O[C@@H]1C [FDX, fidaxomicin, reference compound]" sign== quantitative_result=8
compound="CN[C@H](CC(C)C)C(=O)N[C@H]1C(=O)N[C@@H](CC(N)=O)C(=O)N[C@H]2C(=O)N[C@H]3C(=O)N[C@H](C(=O)N[C@H](C(=O)O)c4cc(O)cc(O)c4-c4cc3ccc4O)[C@H](O)c3ccc(c(Cl)c3)Oc3cc2cc(c3O[C@@H]2O[C@H](CO)[C@@H](O)[C@H](O)[C@H]2O[C@H]2C[C@](C)(N)[C@H](O)[C@H](C)O2)Oc2ccc(cc2Cl)[C@H]1O [VAN, vancomycin, reference compound]" sign== quantitative_result=2
compound="Cc1ncc([N+](=O)[O-])n1CCO [MTZ, metronidazole, reference compound]" sign=> quantitative_result=128

----------
Entries annotated with measured Selectivity
tested on: C. difficile; assay: MIC by broth microdilution against C. difficile strains; assay type: cell-based, Clostridioides difficile; details: MIC MRSA NRS70/MIC C. difficile ATCC43255; Table 7
Quantity name: Selectivity

molecule=O=C(Nc1ncco1)c1cc(-c2ccc(Cl)c(Cl)c2)ccn1 quantitative_result=1024
molecule=O=C(O)c1ccc2oc(NC(=O)c3cc(Oc4cccc(OC(F)(F)F)c4)ccn3)nc2c1 quantitative_result=128
molecule=O=C(Nc1ncco1)c1cc(Oc2cccc(OC(F)(F)F)c2)ccn1 quantitative_result=64
molecule=O=C(Nc1ncco1)c1ccnc(-c2ccc(Cl)c(Cl)c2)c1 quantitative_result=1
molecule="CCc1c(Cl)c(O)c(Cl)c(O)c1C(=O)O[C@H]1[C@H](O)[C@H](OC)[C@H](OC/C2=C\\C=C\\C[C@H](O)/C(C)=C/[C@H](CC)[C@@H](O[C@@H]3OC(C)(C)[C@@H](OC(=O)C(C)C)[C@H](O)[C@@H]3O)/C(C)=C/C(C)=C/C[C@@H]([C@@H](C)O)OC2=O)O[C@@H]1C [FDX, fidaxomicin, reference compound]" quantitative_result=128

----------
experiment: Pharmacokinetics study in mice (plasma and feces levels); format: in vivo; conditions: female, CD-1, mouse, 20 mg/kg single oral administration, feces collected at 8 h, read-out: levels in feces
Quantity name: concentration at 8 h (ng/g)

smiles_code=O=C(O)c1ccc2oc(NC(=O)c3cc(Oc4cccc(OC(F)(F)F)c4)ccn3)nc2c1 quantitative_result=13000

----------
tested on: C. difficile; experiment: MIC by broth microdilution against C. difficile strains; assay type: cell-based, Clostridioides difficile; details: Clostridioides difficile, C. difficile; Table 8; read-out: MIC
Quantity name: MIC (µg/mL)

smiles_code=O=C(Nc1ncco1)c1cc(-c2ccc(Cl)c(Cl)c2)ccn1 quantitative_result=0.125
smiles_code=O=C(Nc1ncco1)c1cc(Oc2cccc(F)c2)ccn1 quantitative_result=1
smiles_code=O=C(Nc1ncco1)c1ccnc(-c2ccc(Cl)c(Cl)c2)c1 quantitative_result=0.25
smiles_code=O=C([O-])c1ccc2oc(NC(=O)c3cc(Oc4ccc(F)c(F)c4)ccn3)nc2c1.[Na+] quantitative_result=0.5
smiles_code=O=C(Nc1ncco1)c1cc(Oc2cccc(OC(F)(F)F)c2)ccn1 quantitative_result=1

----------
tested on: C. difficile; test: MIC by broth microdilution against C. difficile strains; type: cell-based, Clostridioides difficile; conditions: Clostridioides difficile, C. difficile NR49292; Table 7; read-out: MIC
Entries annotated with measured MIC
Quantity name: MIC (mg/L)

compound=O=C(Nc1ncco1)c1cc(Oc2cccc(OC(F)(F)F)c2)ccn1 quantity_name=MIC quantitative_result=0.25
compound="Cc1ncc([N+](=O)[O-])n1CCO [MTZ, metronidazole, reference compound]" quantity_name=MIC quantitative_result=0.25
compound="CCc1c(Cl)c(O)c(Cl)c(O)c1C(=O)O[C@H]1[C@H](O)[C@H](OC)[C@H](OC/C2=C\\C=C\\C[C@H](O)/C(C)=C/[C@H](CC)[C@@H](O[C@@H]3OC(C)(C)[C@@H](OC(=O)C(C)C)[C@H](O)[C@@H]3O)/C(C)=C/C(C)=C/C[C@@H]([C@@H](C)O)OC2=O)O[C@@H]1C [FDX, fidaxomicin, reference compound]" quantity_name=MIC quantitative_result=0.5
compound=O=C(Nc1ncco1)c1ccnc(-c2ccc(Cl)c(Cl)c2)c1 quantity_name=MIC quantitative_result=0.125
compound="CN[C@H](CC(C)C)C(=O)N[C@H]1C(=O)N[C@@H](CC(N)=O)C(=O)N[C@H]2C(=O)N[C@H]3C(=O)N[C@H](C(=O)N[C@H](C(=O)O)c4cc(O)cc(O)c4-c4cc3ccc4O)[C@H](O)c3ccc(c(Cl)c3)Oc3cc2cc(c3O[C@@H]2O[C@H](CO)[C@@H](O)[C@H](O)[C@H]2O[C@H]2C[C@](C)(N)[C@H](O)[C@H](C)O2)Oc2ccc(cc2Cl)[C@H]1O [VAN, vancomycin, reference compound]" quantity_name=MIC quantitative_result=0.25
compound=O=C(Nc1ncco1)c1cc(-c2ccc(Cl)c(Cl)c2)ccn1 quantity_name=MIC quantitative_result=0.25
